Attribution: patent US20120058999A1

Molecular target: rat B1R (Rattus norvegicus, UniProt P97583)
Construct: expressed in transfected cells; host or cells: CHO K1 cells (stably transfected)
Sequence (P97583 1-337): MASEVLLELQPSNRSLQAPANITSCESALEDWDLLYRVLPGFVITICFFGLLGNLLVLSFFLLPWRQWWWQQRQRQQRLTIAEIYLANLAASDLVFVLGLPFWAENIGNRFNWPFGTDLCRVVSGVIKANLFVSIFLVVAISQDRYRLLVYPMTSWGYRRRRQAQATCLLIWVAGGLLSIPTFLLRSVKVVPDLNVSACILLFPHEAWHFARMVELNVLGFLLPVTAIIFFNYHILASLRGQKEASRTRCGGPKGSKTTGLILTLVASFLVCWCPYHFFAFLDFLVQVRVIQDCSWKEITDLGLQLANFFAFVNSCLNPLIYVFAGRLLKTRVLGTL
Experiment: Functional investigation on the bradykinin 1 receptor, cell-based fluorescent calcium-mobilization assay (FLIPR), rat
Settings: 10 μM test substance; CHO K1 cells transfected with rat B1R gene; agonist Des-Arg9-bradykinin at EC80; % of maximum achievable inhibition
# key: entry, value: inhibition at 10 µM
Give a bare numeral; the unit % is implied.

// below: answered molecules
>>> data_value("CN1CCN([C@@H]2CCC[C@H](N(C)C(=O)CCC3c4cccn4CCN3S(=O)(=O)c3cccc(C(F)(F)F)c3)C2)CC1 (relative stereo)")
91
>>> data_value("COc1cc(C)c(S(=O)(=O)N2CCn3cccc3C2COCC(=O)N(C)[C@H]2CCC[C@@H](N3CCN(C)CC3)C2)c(C)c1 (relative stereo) [CC-01]")
105
>>> data_value("COc1cc(C)c(S(=O)(=O)N2CCn3cccc3C2COCC(=O)N(C)[C@H]2CCC[C@@H](N3CCN(C)CC3)C2)c(C)c1 (some centres unmarked) [SC-01]")
103
>>> data_value("COc1cc(C)c(S(=O)(=O)N2CCn3cccc3C2CCCC(=O)N(C)[C@H]2CCC[C@@H](N3CCN(C)CC3)C2)c(C)c1 (relative stereo)")
104

Turning now to a further record.
Incoming: Hi! What's the reported inhibition at 10 µM for COc1cc(C)c(S(=O)(=O)N2CCn3cccc3C2CCCC(=O)N[C@H]2CCC[C@@H](N3CCN(C)CC3)C2)c(C)c1 (relative stereo) on rat B1R (Rattus norvegicus, UniProt P97583)?
Outgoing: 101
